TARGET_OR_SYSTEM: EPHB1 (human) (UniProt P54762)
Sequence (P54762 whole entry, looked up): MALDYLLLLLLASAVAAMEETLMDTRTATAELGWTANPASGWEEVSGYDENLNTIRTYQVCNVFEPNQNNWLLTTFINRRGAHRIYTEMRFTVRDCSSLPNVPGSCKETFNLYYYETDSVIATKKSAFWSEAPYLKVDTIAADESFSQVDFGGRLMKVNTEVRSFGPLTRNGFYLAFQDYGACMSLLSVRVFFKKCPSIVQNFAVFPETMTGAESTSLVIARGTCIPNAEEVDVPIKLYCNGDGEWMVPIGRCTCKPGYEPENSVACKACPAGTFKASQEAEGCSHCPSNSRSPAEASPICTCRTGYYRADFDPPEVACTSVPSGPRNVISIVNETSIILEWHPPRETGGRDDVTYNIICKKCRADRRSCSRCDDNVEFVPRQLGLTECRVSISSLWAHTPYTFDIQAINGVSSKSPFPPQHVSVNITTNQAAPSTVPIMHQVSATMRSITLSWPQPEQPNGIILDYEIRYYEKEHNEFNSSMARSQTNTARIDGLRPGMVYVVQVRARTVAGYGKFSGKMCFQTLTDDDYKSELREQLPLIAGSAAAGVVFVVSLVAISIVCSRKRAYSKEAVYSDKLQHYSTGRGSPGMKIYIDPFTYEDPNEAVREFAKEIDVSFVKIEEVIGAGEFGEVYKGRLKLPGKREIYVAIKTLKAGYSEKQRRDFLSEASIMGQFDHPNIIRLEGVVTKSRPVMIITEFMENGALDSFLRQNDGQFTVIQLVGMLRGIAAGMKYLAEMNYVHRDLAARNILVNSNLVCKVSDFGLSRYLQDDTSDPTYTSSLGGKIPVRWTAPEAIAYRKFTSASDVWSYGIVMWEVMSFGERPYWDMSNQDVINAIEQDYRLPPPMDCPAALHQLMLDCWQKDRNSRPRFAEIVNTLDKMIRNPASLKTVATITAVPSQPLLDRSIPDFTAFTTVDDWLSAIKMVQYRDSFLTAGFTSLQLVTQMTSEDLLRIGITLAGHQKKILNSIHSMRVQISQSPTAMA
MEASUREMENT_DESCRIPTION: radiometric filter-binding kinase assay, Kinase HotSpot
EXPERIMENTAL_PARAMETERS: compound 0.5 µM; ATP 10 µM
QUANTITY_KIND: residual activity (%)
Number in %, nothing else.

                        structure_as_smiles      quantity_kind  units_text  observed
0    Clc1ccc(Nc2nnc(Cc3ccncc3)c3ccccc23)cc1  residual activity           %       107
1      O=C(Nc1ccc(Cl)cc1)c1ccccc1NCc1ccncc1  residual activity           %      90.2
2               Cc1cc2ncc(-c3ccccc3)nc2cc1C  residual activity           %      91.1
3     O=c1cc(N2CCNCC2)oc2c(-c3ccccc3)cccc12  residual activity           %      94.8
4  COc1cc2ncnc(Nc3ccc(F)c(Cl)c3)c2cc1OCCCN1CCOCC1  residual activity           %      94.8

Summary for this molecule, `O=c1cc(-c2cccc3c2Sc2ccccc2S3)oc(N2CCOCC2)c1` : residual activity is 110

Summary for this molecule, `NC(=O)c1ccc(N(C(N)=O)c2c(F)cccc2F)nc1-c1ccc(F)cc1F` : residual activity is 100
